Tested on: SK-OV-3
Test: NCI tumour cell line growth inhibition, 48 h
Activity calls are given as the source filed them. Cut-off read from the data, not from the text of the source: active = GI50 up to about 1.1 µM and inactive = higher.
Assign GI50 to each entry below.

O=[N+]([O-])/C(C(Cl)=C(Cl)Cl)=C1\NCCO1 = > 100 µM (inactive)
CCOC(=O)NNC(=O)NC12CC3CC(CC(C3)C1)C2 = > 100 µM (inactive)
C=CCC1(C)CCCCC1(O)C[S+]([O-])c1ccccc1 (stereo unspecified) = > 100 µM (inactive)
CN1C(=O)c2cccc3cc([N+](=O)[O-])cc(c23)C1=O = > 10 µM (inactive)
Cc1cc(S(=O)(=O)Nc2nnc3c(C(F)(F)F)cc(Cl)cn23)c(S)cc1Cl = > 100 µM (inactive)
COC(=O)[C@H]1CC(=O)C=C2CCCC21 (stereo partly specified) = > 100 µM (inactive)
CCSc1nn(-c2c3ccccc3nc3ccccc23)c(=S)s1 = > 100 µM (inactive)
CO/N=C/c1c(-c2ccc(Cl)cc2)c(/C=N/OC)n2c1sc1ccccc12 = > 100 µM (inactive)

List the reported GI50 of each compound below.
1. BC(=O)NC(CC(C)C)C(=O)NCC(=O)NC1c2ccsc2C(=O)C1O.CN(C)C (stereo unspecified)
2. O=C(O)C1CCCCN1C(=O)Cc1c[nH]c2ccccc12 (stereo unspecified)

Result block:
1: > 100 µM (inactive); 2: > 100 µM (inactive)

Query block: Need GI50 of CCOC(=O)c1cc2cc(N(C(C)=O)C(C)=O)ccc2s1 , thanks.
Result block: 30.4 µM (inactive)

----------
System: SF-539
Assay: NCI tumour cell line growth inhibition, 48 h
Activity calls are given as the source filed them. Rule as the data show it: active = GI50 up to about 1.1 µM and inactive = higher.
Please provide measured GI50 for the entries that follow.

Please review the entries below; each comes with its answer.
C=CCNC(=O)/C(Cc1cc(Br)c(OC)c(Br)c1O)=N\O = 3.6 µM (inactive)
CCCCCCCCCCCCCCCCCCNc1ccn(C2OC(CO)C(OP(=O)(O)OCC3CCC(n4ccc(N)nc4=O)O3)C2O)c(=O)n1 (stereo not given) = 32.7 µM (inactive)
O=S(=O)(O)c1ccc(/N=N/c2ccccc2)cc1 = > 100 µM (inactive)
O=C(/N=S(/NC(=O)c1ccccc1)C(Cl)(Cl)Cl)c1ccccc1 (stereo not given) = 21.1 µM (inactive)
CCc1cccc(C(C)CC)c1NC(=O)C(=O)C(CC(=O)Nc1ccc(Cl)c(Cl)c1)C(=O)OC (stereo not given) = > 100 µM (inactive)
O=C(O)[C@@H]1CSCN1C(=O)[C@@H]1CCC(=S)N1 = > 100 µM (inactive)
Nc1ccc(Cc2ccc(/N=C\c3ccc(OCc4cccc(COc5ccc(/C=N\c6ccc(Cc7ccc(N)cc7)cc6)cc5)n4)cc3)cc2)cc1 = 4.29 µM (inactive)
CCN(CC)CCC1CCCCN1CC(=O)N1c2cc(Cl)ccc2NC(=O)CC1C (stereo not given) = > 100 µM (inactive)

Hey, quick one: what's GI50 for each of these?
1. C=CCc1cccc(C(=O)/C=C(O)/C=C/c2ccccc2Cl)c1O
2. O=C(/C=C/c1cccc(Br)c1)c1ccc(Cl)cc1

Result block:
["7.43 µM (inactive)", "16.6 µM (inactive)"]

----------
Tested on: MDA-MB-231
Experiment: NCI tumour cell line growth inhibition, 48 h
The source made the active and inactive calls. Cut-off read from the data, not from the text of the source: active = GI50 up to about 1.1 µM and inactive = higher.
Select the matching outcome among 1.0 (active), 0.0 (inactive)

Worked cases, answers included:
Cc1cc(S(=O)(=O)Nc2nnc3c(C(F)(F)F)cc(Cl)cn23)c(S)cc1Cl = 0.0
O=C(/C=C/c1cccc(Br)c1)c1ccc(Cl)cc1 = 0.0
COc1cc2cc(C(=O)N3CC(CCl)c4c3cc(NC(=O)C(C)Nc3c([N+](=O)[O-])cc(C(=O)NCCN(C)C)cc3[N+](=O)[O-])c3ccccc43)[nH]c2c(OC)c1OC (stereo not given) = 1.0
Cc1oncc1/N=C1\C=C(O)C(=O)c2ccccc21 = 0.0

--- query ---
Query block: Entry CCOC(=O)CC1(N)CC2c3ccccc3OC(=O)C2C(=O)N1 (stereo not given) : call = ?
Result block: 0.0
